- ASSAY_INFO: MRT (0 to infinity) in C57BL/6J mouse at 20 mg/kg, iv measured up to 24 hrs by LC-MS/MS analysis
- Type: ADME, organism-based
- EXPERIMENTAL_CONTEXT: in vivo
PARAMETER: MRT inf (h)
Respond numerically; units are h and should not be typed.

For `c1ccc2c(c1)[nH]c1c(-c3c[nH]cn3)nccc12` the molecule record lists MRT inf as 1.85

====

- TARGET_DESC: Indoleamine 2,3-dioxygenase 1 (Homo sapiens, UniProt P14902)
- ASSAY_INFO: Inhibition of IDO1 (unknown origin) assessed as reduction in kynurenine production using L-tryptophan as substrate incubated for 1 hr by absorbance based microplate reader analysis
- Sequence (P14902 whole entry): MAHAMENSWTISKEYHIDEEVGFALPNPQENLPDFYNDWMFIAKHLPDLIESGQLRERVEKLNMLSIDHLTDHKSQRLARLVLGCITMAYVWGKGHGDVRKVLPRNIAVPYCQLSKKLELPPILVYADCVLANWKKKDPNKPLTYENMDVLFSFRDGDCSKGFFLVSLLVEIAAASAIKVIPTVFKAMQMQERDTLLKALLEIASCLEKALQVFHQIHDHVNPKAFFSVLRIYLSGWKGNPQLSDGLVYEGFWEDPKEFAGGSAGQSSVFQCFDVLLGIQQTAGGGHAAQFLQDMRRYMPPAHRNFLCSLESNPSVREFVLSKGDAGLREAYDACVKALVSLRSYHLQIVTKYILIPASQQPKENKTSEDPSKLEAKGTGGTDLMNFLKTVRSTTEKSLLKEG
Overview of recorded IC50 for various compounds
Respond numerically; units are µM and should not be typed.

O=[N+]([O-])c1ccc(-c2nccc3c2[nH]c2ccccc23)cc1 | 8.44
Brc1cccc(-c2nccc3c2[nH]c2ccccc23)c1 | 4.95
Clc1cc(Cl)cc(-c2nccc3c2[nH]c2ccccc23)c1 | 16.5

For `c1ccc2c(c1)[nH]c1c(-c3cnn[nH]3)nccc12` the compound record lists IC50 as 13.9

For `Fc1cc(-c2nccc3c2[nH]c2ccccc23)ccc1Br` the compound record lists IC50 as 32.7

====

- ASSAY_INFO: Cmax in C57BL/6J mouse at 20 mg/kg, iv measured up to 24 hrs by LC-MS/MS analysis
- Assay type: ADME, organism-based
- Set-up: time < 24 hrs, dose 20 mg/kg, route iv
- EXPERIMENTAL_CONTEXT: in vivo
PARAMETER: Cmax (ng/mL)
Respond numerically; units are ng/mL and should not be typed.

For `c1ccc2c(c1)[nH]c1c(-c3c[nH]cn3)nccc12` the compound record lists Cmax as 5540

====

- TARGET_DESC: Indoleamine 2,3-dioxygenase 1 (Homo sapiens, UniProt P14902)
- ASSAY_INFO: Inhibition of IDO1 (unknown origin) assessed as reduction in kynurenine production using L-tryptophan as substrate at 50 uM incubated for 1 hr by absorbance based microplate reader analysis relative to control
- Sequence (P14902 whole entry, looked up): as the sequence (P14902 whole entry) above
Overview of recorded inhibition for various compounds

Example cases with answers are listed next.
O=[N+]([O-])c1cccc(-c2nccc3c2[nH]c2ccccc23)c1 | 96%
Brc1cccc(-c2nccc3c2[nH]c2ccccc23)c1 | 93%

Query `c1cncc(-c2nccc3c2[nH]c2ccccc23)c1` on Indoleamine 2,3-dioxygenase 1 (Homo sapiens, UniProt P14902); inhibition returned: 26%

Query `c1ccc(-c2nccc3c2[nH]c2ccccc23)cc1` on Indoleamine 2,3-dioxygenase 1 (Homo sapiens, UniProt P14902); inhibition returned: 7%

Query `N#Cc1cccc(-c2nccc3c2[nH]c2ccccc23)c1` on Indoleamine 2,3-dioxygenase 1 (Homo sapiens, UniProt P14902); inhibition returned: 66%

Query Cc1nccc2c1[nH]c1ccccc12 [HARMAN] on Indoleamine 2,3-dioxygenase 1 (Homo sapiens, UniProt P14902); inhibition returned: 34%

Query `c1coc(-c2nccc3c2[nH]c2ccccc23)c1` on Indoleamine 2,3-dioxygenase 1 (Homo sapiens, UniProt P14902); inhibition returned: 33%

Query `N#Cc1ccc(-c2nccc3c2[nH]c2ccccc23)cc1` on Indoleamine 2,3-dioxygenase 1 (Homo sapiens, UniProt P14902); inhibition returned: 53%

Query `FC(F)(F)c1ccc(-c2nccc3c2[nH]c2ccccc23)cc1` on Indoleamine 2,3-dioxygenase 1 (Homo sapiens, UniProt P14902); inhibition returned: 13%

Query `Oc1ccc(-c2nccc3c2[nH]c2ccccc23)cc1` on Indoleamine 2,3-dioxygenase 1 (Homo sapiens, UniProt P14902); inhibition returned: 24%

Query `O=[N+]([O-])c1ccc(-c2nccc3c2[nH]c2ccccc23)cc1` on Indoleamine 2,3-dioxygenase 1 (Homo sapiens, UniProt P14902); inhibition returned: 94%

Query `c1ccc2c(c1)[nH]c1c(-c3ccsc3)nccc12` on Indoleamine 2,3-dioxygenase 1 (Homo sapiens, UniProt P14902); inhibition returned: 34%
